- Test system: biotinyl-Leu-oxazolone
- assay: self-aminoacylation, catalytic enhancement (BLO) (fold over background); higher = more active; k-Seq, kA / k0A0; sequences stand for … in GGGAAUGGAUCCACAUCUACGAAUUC…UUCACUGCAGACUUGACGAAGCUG
Fewer inactive variants are shown than the library holds.
Below, each entry is listed with its recorded self-aminoacylation.
Give only the figure.

Look over these answered cases.
CCACACGUCAACCAAUCGGUC [Fam1B.1 aminoacylation ribozyme variant] = 1.17
CUACUUCGAACAAUCGGUCCG [Fam1A.1 aminoacylation ribozyme variant] = 0.865
CUGCUUCAAACAAUCUGUCUG [Fam1A.1 aminoacylation ribozyme variant] = 0.647

Then this sequence:
Please give the documented self-aminoacylation of AUUACCCUGCUGAUCGAGUGA [Fam2.1 aminoacylation ribozyme variant]
2.87

----------
- System: biotinyl-Val-oxazolone
- assay: self-aminoacylation, catalytic enhancement (BVO) (fold over background); higher = more active; k-Seq, kA / k0A0; sequences stand for … in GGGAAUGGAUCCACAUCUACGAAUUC…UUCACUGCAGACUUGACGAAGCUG
Fewer inactive variants are shown than the library holds.
Mark false for self-aminoacylation values under 1, and true for everything at or above.

Some solved cases for reference:
CGACUUCAAACAGUCGGUCUG [Fam1A.1 aminoacylation ribozyme variant] = true
CUACUUCAAACGAUCGAUCUG [Fam1A.1 aminoacylation ribozyme variant] = false
CUUACCCUGGUCAUCAAGUGA [Fam2.1 aminoacylation ribozyme variant] = true
AAGUUUGCUAAUAAUCGCAUG [Fam3.1 aminoacylation ribozyme variant] = false
AUACCCCUGGUCAUCGAGUGA [Fam2.1 aminoacylation ribozyme variant] = true

State whether the measured self-aminoacylation reaches 1, counting equality as reaching it, for AAGUUUGCAAAAAGUCGCAAG [Fam3.1 aminoacylation ribozyme variant]
false

In plain terms: is recorded self-aminoacylation at least 1 for AUUACUCUGGUCACCGAGUGA [Fam2.1 aminoacylation ribozyme variant] ?
true

// inclusive: self-aminoacylation at least 1? input: UCACACUUCAAGCAAUCGUUC [Fam1B.1 aminoacylation ribozyme variant]
false

Textbook exercise: given the entry GUACUUCAACCAAUCGGUCUG [Fam1A.1 aminoacylation ribozyme variant] , state whether its self-aminoacylation is greater than or equal to 1.
true

Form field: self-aminoacylation at least 1? Entry: CUACUUCCAACAAUCGAUCUG [Fam1A.1 aminoacylation ribozyme variant]
false

I'd appreciate it if you could say whether UAGUUUGCUAAUAUUCGCAAG [Fam3.1 aminoacylation ribozyme variant] has self-aminoacylation at least equal to 1.
true

Determine whether measured self-aminoacylation meets or exceeds 1 for CCAUACUUCAAGCACUCGGUC [Fam1B.1 aminoacylation ribozyme variant]
true

Please check the record CUUACCCUGAUCAUCGAGUGA [Fam2.1 aminoacylation ribozyme variant] and state if its self-aminoacylation is at or above 1.
true

Test whether the sequence CUACUUAAAACAAUCGGUCGG [Fam1A.1 aminoacylation ribozyme variant] records self-aminoacylation of 1 or higher.
false

Determine whether this sequence has self-aminoacylation no lower than 1: CCACACUUCAAGCAUUCGCUC [Fam1B.1 aminoacylation ribozyme variant]
true

Entry AUACUUCAAACAAUCGGUCAG [Fam1A.1 aminoacylation ribozyme variant] : is its self-aminoacylation no less than 1?
false

Check if self-aminoacylation >= 1 (inclusive). Item: CUACUUCAAACUAUCGGCCUG [Fam1A.1 aminoacylation ribozyme variant]
true
